Taken from PubChem BioAssay AID641.

- measurement target: D(1A) dopamine receptor (Homo sapiens) (UniProt P21728)
- Sequence (P21728 whole entry, looked up): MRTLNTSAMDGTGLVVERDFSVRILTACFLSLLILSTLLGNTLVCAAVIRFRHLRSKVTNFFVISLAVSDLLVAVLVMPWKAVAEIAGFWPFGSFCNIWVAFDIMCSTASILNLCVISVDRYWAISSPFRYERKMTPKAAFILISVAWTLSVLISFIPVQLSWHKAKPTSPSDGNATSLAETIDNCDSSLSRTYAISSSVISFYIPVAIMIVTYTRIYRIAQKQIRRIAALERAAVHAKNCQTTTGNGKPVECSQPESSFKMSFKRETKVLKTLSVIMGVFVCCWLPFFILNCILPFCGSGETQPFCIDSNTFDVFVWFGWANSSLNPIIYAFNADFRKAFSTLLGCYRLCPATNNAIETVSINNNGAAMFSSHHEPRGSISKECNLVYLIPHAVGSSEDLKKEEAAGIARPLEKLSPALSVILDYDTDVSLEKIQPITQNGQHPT
- experimental protocol: D1 CRE-luciferase signal change, two-sided – cell-based, HEK293 D1, dopamine EC30, D1 allosteric modulator project, primary screen (AID 641)
- details: dopamine EC30 potentiation, at 10 µM, actives deviate in either direction
Out of some 58,000 compounds screened, about 3,400 (5.9%) were called active.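 The calls were made as follows: active = luminescence count or its row- and column-corrected plate score outside the 99.7% band of the plate's sample wells, on either side; inactive = the rest.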 Shown is part of a subset that was picked to be rich in actives.
Possible outcomes: active, inactive

>  <compound>
Cc1cccc2cc(C#N)c(N3CCCC3)nc12

>  <classification>
inactive

$$$$
>  <compound>
CCc1nc(Nc2ccc3nccnc3c2)c2oc3ccccc3c2n1

>  <classification>
inactive

$$$$
>  <compound>
CCc1ccc(N(CC)c2ncnc3nc[nH]c23)cc1

>  <classification>
inactive

$$$$
>  <compound>
CC(=O)Nc1ccc(S(=O)(=O)N2CCCC2C(=O)O)cc1 (stereo not given)

>  <classification>
inactive

$$$$
>  <compound>
O=C(CSc1nnc(-c2cccs2)n1-c1ccccc1)NCc1ccco1

>  <classification>
inactive

$$$$
>  <compound>
CC(C)c1cc(C(=O)O)on1

>  <classification>
active

$$$$
>  <compound>
CCC(C)n1[nH]c(=O)cc1N (stereo not given)

>  <classification>
inactive

$$$$
>  <compound>
CC(=O)NC(C)(C)C1CC=C(C)/C(=N\O)C1 (stereo not given)

>  <classification>
inactive

$$$$
>  <compound>
Cc1ccc(C)n1C(Cc1ccccc1)C(=O)O (stereo not given)

>  <classification>
inactive

$$$$
>  <compound>
COc1ccc(NS(=O)(=O)c2ccc(NC(C)=O)cc2)cc1OC

>  <classification>
inactive

$$$$
>  <compound>
Cc1nonc1NC(=O)c1ccccc1Br

>  <classification>
inactive

$$$$
>  <compound>
O=C1C(C=NCC2CCCO2)=C(O)c2ccccc21 (stereo not given)

>  <classification>
inactive

$$$$
>  <compound>
CCOc1cccc(NC(=O)CC#N)c1

>  <classification>
inactive

$$$$
>  <compound>
CCOc1ccc2[nH]c(=O)c(CN(Cc3nnnn3CCc3ccccc3)CC3CCCO3)cc2c1 (stereo not given)

>  <classification>
inactive

$$$$
>  <compound>
CC(=O)Nc1ccc(N2CCOCC2)c(C(=O)Nc2cccc(C)c2)c1

>  <classification>
inactive

$$$$
>  <compound>
O=P(O)(CN1CCCCC1)CN1CCCCC1

>  <classification>
inactive

$$$$
>  <compound>
Cc1occc1C(=O)Nc1nnc(C2CCCCC2)s1

>  <classification>
inactive

$$$$
>  <compound>
CC(=O)Nc1cccc(Oc2cc(C#N)c(C#N)cc2N2CCOCC2)c1

>  <classification>
active

$$$$
>  <compound>
O=C(CCCn1c(=O)[nH]c2cc(Cl)ccc2c1=O)NCCN1CCN(c2ccccc2)CC1

>  <classification>
active

$$$$
>  <compound>
O=C1CC(N2CCN(C(c3ccccc3)c3ccccc3)CC2)C(=O)N1 (stereo not given)

>  <classification>
inactive

$$$$
>  <compound>
Cc1cc2c(cc1C)NC(c1ccccn1)C1=C(CC(C)(C)CC1=O)N2 (stereo not given)

>  <classification>
inactive

$$$$
>  <compound>
O=C(CCCCn1c(=O)[nH]c2ccccc2c1=O)NCc1ccc2c(c1)OCO2

>  <classification>
inactive

$$$$
>  <compound>
Cc1ccc(S(=O)(=O)N2CC(=O)Nc3ccccc32)cc1C

>  <classification>
inactive

$$$$
>  <compound>
CC1(C)CC(=O)NC=C(c2ccccc2)C1

>  <classification>
inactive

$$$$
>  <compound>
Cc1ccc(-c2nc(COC(=O)c3c(C)noc3C)cs2)cc1

>  <classification>
inactive

$$$$

---

- measurement target: D(1A) dopamine receptor (Homo sapiens) (UniProt P21728)
- experimental protocol: D1 CRE-luciferase signal change, two-sided – cell-based, HEK293 D1, dopamine EC30, D1 allosteric modulator project, primary screen (AID 641)
- details: dopamine EC30 potentiation, at 10 µM, actives deviate in either direction
Among all 58,000 compounds or so, about 3,400 (5.9%) were called active. The entries come from a sample that favours actives as a whole.
// values below are reported B-score

>  <compound>
Cc1cccc(Cn2c(SCCO)nc3c2c(=O)n(C)c(=O)n3C)c1

>  <B-score>
0.248

$$$$
>  <compound>
CCn1c(SCC(=O)Nc2ccc3c(c2)OCCO3)nc2c(c1=O)SC(C)C2 (stereo unspecified)

>  <B-score>
2

$$$$
>  <compound>
CCn1c(SCC(=O)Nc2ccccc2F)nc2c(c1=O)SC(C)C2 (stereo unspecified)

>  <B-score>
0.8

$$$$
>  <compound>
CCOC(=O)NC(C(F)(F)F)(C(F)(F)F)P(=O)(c1ccccc1)c1ccccc1

>  <B-score>
-0.00139

$$$$
>  <compound>
O=C(O)c1ccc(NC(=O)c2cccs2)cc1

>  <B-score>
0.0162

$$$$
>  <compound>
O=[n+]1c2c(n([O-])c3cc(Br)ccc31)CCC2

>  <B-score>
-0.651

$$$$
>  <compound>
CC1CCc2c(sc3c2C2=NS(=O)(=O)CCN2C=N3)C1 (stereo unspecified)

>  <B-score>
1.19

$$$$
>  <compound>
Cc1c(-c2nn(C)c(=O)c3ccccc23)oc2ccc(F)cc2c1=O

>  <B-score>
1.77

$$$$
>  <compound>
c1nnc2c3c4c(sc3ncn12)CCC4

>  <B-score>
0.277

$$$$
>  <compound>
COC(=O)C(C)Sc1nc2c(c(=O)n(C)c(=O)n2C)n1Cc1cccc(C)c1 (stereo unspecified)

>  <B-score>
0.892

$$$$
>  <compound>
Cn1nnnc1SCC(=O)N1CCN(Cc2ccccc2)CC1

>  <B-score>
0.031

$$$$

---

- measurement target: D(1A) dopamine receptor (Homo sapiens) (UniProt P21728)
- experimental protocol: D1 CRE-luciferase signal change, two-sided – cell-based, HEK293 D1, dopamine EC30, D1 allosteric modulator project, primary screen (AID 641)
- details: dopamine EC30 potentiation, at 10 µM, actives deviate in either direction
The campaign covered roughly 58,000 compounds. About 3,400 (5.9%) were called active.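 The calls were made as follows: active = luminescence count or its row- and column-corrected plate score outside the 99.7% band of the plate's sample wells, on either side; inactive = the rest.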 For the sample, actives were picked, then their nearest neighbours and some compounds at random.
Possible outcomes: yes (1) (active), no (0) (inactive)

>  <compound>
Cc1ccc(-c2nn(-c3ccccc3)cc2CN(Cc2ccccc2)C(=O)CCC(=O)O)o1

>  <classification>
yes (1)

$$$$
>  <compound>
CCCC(C)n1[nH]c(=O)c2c(C)cc(C)nc21 (centres undefined)

>  <classification>
no (0)

$$$$
>  <compound>
O=C(NCc1cccnc1)c1ccc(CS(=O)(=O)c2ccc(Br)cc2)o1

>  <classification>
no (0)

$$$$
>  <compound>
O=C(c1cc(-c2cccc(O)c2)on1)N1CCc2ccccc2C1

>  <classification>
no (0)

$$$$
>  <compound>
CC(C)Nc1nc(N(c2ccccc2)c2ccccc2)nc(-n2ccnc2)n1

>  <classification>
no (0)

$$$$
>  <compound>
COc1ncnc2sc3c(c12)CCCC3

>  <classification>
yes (1)

$$$$
>  <compound>
N#Cc1nc(N)nc(N(c2ccccc2)c2ccccc2)n1

>  <classification>
yes (1)

$$$$
>  <compound>
Cc1noc(C)c1S(=O)(=O)N1CCCC(C(=O)Nc2nccs2)C1 (centres undefined)

>  <classification>
no (0)

$$$$
>  <compound>
C=CCSc1nc2ccccc2[nH]1

>  <classification>
no (0)

$$$$
>  <compound>
COC(=O)c1oc2ccc(Br)cc2c1NC(C)=O

>  <classification>
no (0)

$$$$
>  <compound>
c1ccc(-c2[nH]ncc2-c2nc3ccccc3[nH]2)cc1

>  <classification>
no (0)

$$$$
>  <compound>
Cc1cc(=O)oc(C)c1C(=O)Nc1cnc2ccccc2c1

>  <classification>
no (0)

$$$$
>  <compound>
CC1CCCN(Cc2nc3c(c(=O)n(C)c(=O)n3C)n2Cc2cccc3ccccc23)C1 (centres undefined)

>  <classification>
no (0)

$$$$
>  <compound>
Cc1nc(-c2ccc(NC(=O)c3cccs3)cc2)cs1

>  <classification>
yes (1)

$$$$
>  <compound>
c1ccc2[nH]c(-c3nc4ccccc4[nH]3)nc2c1

>  <classification>
yes (1)

$$$$
>  <compound>
O=C(O)Cc1ccc(NC(=O)c2cccs2)cc1

>  <classification>
no (0)

$$$$
>  <compound>
COc1nc(OC)nc(N(C)CCO)n1

>  <classification>
no (0)

$$$$
>  <compound>
CCCC(C(=O)N1CCOCC1)N1C(=O)C2C3C=CC(C3)C2C1=O (centres undefined)

>  <classification>
no (0)

$$$$
>  <compound>
CCOc1ccccc1N(CC(=O)Nc1ccccc1C(=O)OC)S(C)(=O)=O

>  <classification>
no (0)

$$$$
>  <compound>
COc1cccc2c(=O)n(CC(=O)N3CCCCCC3)ccc12

>  <classification>
no (0)

$$$$
>  <compound>
COc1ccc(OC)c(C(=O)c2coc3ccc(OC)cc23)c1

>  <classification>
no (0)

$$$$
>  <compound>
COC(CCN(C)C)(c1ccccc1)c1ccccc1

>  <classification>
no (0)

$$$$
>  <compound>
CC1(C)CC(=O)c2cc(OCC(=O)NCC3CCCO3)ccc2O1 (centres undefined)

>  <classification>
no (0)

$$$$
>  <compound>
CCOC(=O)/C=c1\s/c(=C\c2ccccc2OC)c(=O)n1CC(=O)N1CCOCC1

>  <classification>
yes (1)

$$$$
